The measurements presented in this section are drawn from ChEMBL document CHEMBL1208735.

Tested on: Plasmodium yoelii nigeriensis
Assay Text: Antimalarial activity against multi drug-resistant Plasmodium yoelii nigeriensis infected in Swiss mice (Mus musculus) assessed as protection of patent infection at 96 mg/kg, perorally daily for 4 days measured after 28 days
Assay type: functional, organism-based
Set-up: dose 96 mg/kg
Activity calls are given as the source filed them. The rule behind the calls is not given here.
In this exercise, the only acceptable responses are active, inactive

[[record]]
compound = "C=C(c1ccc(Oc2cccc3ccccc23)cc1)C1COC2(CCCC2)OO1 (stereo unspecified)"
study_target = "Plasmodium yoelii nigeriensis"
label_value = "active"

[[record]]
compound = "C=C(c1ccc(Oc2ccc(-c3ccccc3)cc2)cc1)C1COC2(CCCCC2)OO1 (stereo unspecified)"
study_target = "Plasmodium yoelii nigeriensis"
label_value = "inactive"

[[record]]
compound = "C=C(c1ccc(Oc2cccc3ccccc23)cc1)C1COC2(OO1)C1CC3CC(C1)CC2C3 (stereo unspecified)"
study_target = "Plasmodium yoelii nigeriensis"
label_value = "inactive"

[[record]]
compound = "C=C(c1ccc(Oc2ccc(-c3ccccc3)cc2)cc1)C1COC2(CCCC2)OO1 (stereo unspecified)"
study_target = "Plasmodium yoelii nigeriensis"
label_value = "active"


What is the recorded call for this compound in the test? C=C(c1ccc(Oc2cccc3ccccc23)cc1)C1COC2(CCCCC2)OO1 (stereo unspecified)
inactive

Then this compound: C=C(c1ccc(Oc2ccc3ccccc3c2)cc1)C1COC2(CCCC2)OO1 (stereo unspecified)
active

---

Quick list: Activity per entry.
Test system: Plasmodium yoelii nigeriensis
Assay Text: Antimalarial activity against multi drug-resistant Plasmodium yoelii nigeriensis infected in Swiss mice (Mus musculus) assessed as suppression of parasitaemia level at 96 mg/kg, perorally daily for 4 days
Assay type: functional
Test Settings: route oral
Write the number in % without appending the unit.

[[record]]
compound = "C=C(c1ccc(Oc2ccccc2)cc1)C1COC2(OO1)C1CC3CC(C1)CC2C3 (configuration not stated)"
readout_units = "%"
reported = 100

[[record]]
compound = "C=C(c1ccc(Oc2ccccc2)cc1)C1COC2(CCCCC2)OO1 (configuration not stated)"
readout_units = "%"
reported = 100

[[record]]
compound = "C=C(c1ccc(Oc2ccc3ccccc3c2)cc1)C1COC2(CCCC2)OO1 (configuration not stated)"
readout_units = "%"
reported = 100

[[record]]
compound = "C=C(c1ccc(Oc2ccc(-c3ccccc3)cc2)cc1)C1COC2(OO1)C1CC3CC(C1)CC2C3 (configuration not stated)"
readout_units = "%"
reported = 100


Entry C=C(c1ccc(Oc2cccc3ccccc23)cc1)C1COC2(CCCCC2)OO1 (configuration not stated) : reported Activity = ?
92.81

---

Test system: Plasmodium yoelii nigeriensis
Assay Text: Antimalarial activity against multi drug-resistant Plasmodium yoelii nigeriensis infected in Swiss mice (Mus musculus) assessed as suppression of parasitaemia level at 96 mg/kg, perorally daily for 4 days
Assay type: functional
Test Settings: route oral
Parameter: Activity (%)
Express your answer in %, writing the number without its unit.

What does the data say about its Activity? Entry: C=C(c1ccc(Oc2ccc3ccccc3c2)cc1)C1COC2(OO1)C1CC3CC(C1)CC2C3 (configuration not stated)
100

Same again, this time with C=C(c1ccc(Oc2cccc3ccccc23)cc1)C1COC2(OO1)C1CC3CC(C1)CC2C3 (configuration not stated)
93.15

Now consider C=C(c1ccc(Oc2ccc3ccccc3c2)cc1)C1COC2(CCCCC2)OO1 (configuration not stated) and answer again.
100

Request: C=C(c1ccc(Oc2ccccc2)cc1)C1COC2(CCCC2)OO1 (configuration not stated)
100

Record: C=C(c1ccc(Oc2cccc3ccccc23)cc1)C1COC2(CCCC2)OO1 (configuration not stated)
100

// same read-out, input: C=C(c1ccc(Oc2ccc(-c3ccccc3)cc2)cc1)C1COC2(CCCC2)OO1 (configuration not stated)
100

Another compound to look at: C=C(c1ccc(Oc2ccc(-c3ccccc3)cc2)cc1)C1COC2(CCCCC2)OO1 (configuration not stated)
84.39
